# Condition Summary: in 2-butanone, 288.16 K
Measured Property: solubility (mole fraction)
Please give only the number in your answer, with no unit.

Asked: Give the reported solubility (mole fraction) for this molecule. "CN(C)CCC=C1c2ccccc2CCc2ccccc21.Cl"
Given back: 0.00275

###

# Condition Summary: in n-butanol, 308.2 K
Measured Property: solubility (mole fraction)

Asked: Give the reported solubility (mole fraction) for this molecule. "CN(C)CCC=C1c2ccccc2CCc2ccccc21.Cl"
Given back: 0.0662

###

# Condition Summary: in n-butanol, 313.15 K
Measured Property: solubility (mole fraction)
Please give only the number in your answer, with no unit.

Asked: Give the reported solubility (mole fraction) for this compound. "CN(C)CCC=C1c2ccccc2CCc2ccccc21.Cl"
Given back: 0.0803
